Entries annotated with measured ECM AVRG (average KD)
Molecular target: Matrix-associated proTGFβ1 (hLTBP1-proTGFβ1 and hLTBP3-proTGFβ1 complexes)
Assay: MSD-SET; IgG4 from mammalian cells; mean of hLTBP1 and hLTBP3
Give just the numeric value; nM need not be written.

binder	ECM AVRG (average KD) [nM]
Ab2 (antibody, V domains shown) VH: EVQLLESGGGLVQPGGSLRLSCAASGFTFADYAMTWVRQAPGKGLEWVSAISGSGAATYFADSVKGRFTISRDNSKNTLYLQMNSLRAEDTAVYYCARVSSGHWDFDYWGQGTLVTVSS VL: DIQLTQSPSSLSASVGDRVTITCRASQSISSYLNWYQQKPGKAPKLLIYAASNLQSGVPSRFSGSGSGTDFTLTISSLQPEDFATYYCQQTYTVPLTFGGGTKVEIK	0.266
Ab19 (antibody, V domains shown) VH: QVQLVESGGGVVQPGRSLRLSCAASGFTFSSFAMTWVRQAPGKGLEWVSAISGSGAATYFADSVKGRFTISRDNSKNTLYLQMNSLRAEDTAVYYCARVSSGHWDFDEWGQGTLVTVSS VL: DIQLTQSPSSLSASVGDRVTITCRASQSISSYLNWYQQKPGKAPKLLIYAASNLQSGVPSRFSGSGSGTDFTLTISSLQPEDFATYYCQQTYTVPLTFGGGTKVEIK	2.83
Ab12 (antibody, V domains shown) VH: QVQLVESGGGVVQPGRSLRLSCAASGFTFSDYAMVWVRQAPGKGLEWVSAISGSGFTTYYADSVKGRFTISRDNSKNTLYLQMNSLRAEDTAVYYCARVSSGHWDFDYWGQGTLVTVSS VL: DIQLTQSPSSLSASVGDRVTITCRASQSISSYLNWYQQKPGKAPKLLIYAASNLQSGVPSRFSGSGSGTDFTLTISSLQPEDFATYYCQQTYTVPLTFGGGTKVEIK	0.72

# input // query ECM AVRG (average KD) value for entry Ab11 (antibody, V domains shown) VH: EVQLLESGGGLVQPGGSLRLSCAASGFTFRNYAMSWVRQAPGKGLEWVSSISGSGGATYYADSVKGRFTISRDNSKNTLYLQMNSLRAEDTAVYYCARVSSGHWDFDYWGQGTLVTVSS VL: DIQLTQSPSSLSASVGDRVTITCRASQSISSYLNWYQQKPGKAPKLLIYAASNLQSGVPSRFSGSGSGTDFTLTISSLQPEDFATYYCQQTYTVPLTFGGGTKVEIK
# output 1.2

# input For Ab20 (antibody, V domains shown) VH: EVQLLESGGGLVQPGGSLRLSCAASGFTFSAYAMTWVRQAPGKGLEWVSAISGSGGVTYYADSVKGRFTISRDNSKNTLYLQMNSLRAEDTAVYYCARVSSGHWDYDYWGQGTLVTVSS VL: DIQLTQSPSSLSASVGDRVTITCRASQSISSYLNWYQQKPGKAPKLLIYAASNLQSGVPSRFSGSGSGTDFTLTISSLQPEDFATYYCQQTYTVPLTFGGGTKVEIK , what is its reported ECM AVRG (average KD)?
# output 0.2
